Value Kind: melting point

Worked set:
INSERT INTO results (molecule, result) VALUES
  ('Clc1ccc(/N=c2\snc3sc(C4COc5ccccc5O4)nn23)cc1 (centres unmarked) [Compound 13]', '204 to 205 °C'),
  ('Oc1cc(O)cc(/N=c2\snc3sc(C4COc5ccccc5O4)nn23)c1 (centres unmarked) [Compound 3]', '200 to 201 °C'),
  ('Oc1cccc(/N=c2\snc3sc(C4COc5ccccc5O4)nn23)c1O (centres unmarked) [Compound 22]', '198 to 199 °C'),
  ('Oc1ccc(/N=c2\snc3sc(C4COc5ccccc5O4)nn23)cc1O (centres unmarked) [Compound 5]', '201 to 202 °C');

Task item: Can you look up the measured melting point of Oc1ccc(/N=c2\snc3sc(C4COc5ccccc5O4)nn23)c(O)c1 (centres unmarked) [Compound 2] for me?
Reply: 201 to 202 °C

* * *

Known melting point of a selection of compounds

Worked set:
INSERT INTO measurements (compound, result) VALUES
  ('CN(C)c1ccc(/N=c2\snc3sc(C4COc5ccccc5O4)nn23)cc1 (centres unmarked)', '206 to 207 °C'),
  ('Cc1ccccc1/N=c1\snc2sc(C3COc4ccccc4O3)nn12 (centres unmarked)', '188 to 189 °C'),
  ('COc1ccc(/N=c2\snc3sc(C4COc5ccccc5O4)nn23)cc1O (centres unmarked)', '212 to 213 °C'),
  ('Oc1cccc(/N=c2\snc3sc(C4COc5ccccc5O4)nn23)c1 (centres unmarked)', '191 to 192 °C');

Now look at this one.
Task item: Can you look up the measured melting point of O=[N+]([O-])c1ccc(/N=c2\snc3sc(C4COc5ccccc5O4)nn23)cc1 (centres unmarked) for me?
Reply: 210 to 211 °C

* * *

Known melting point of a selection of compounds

INSERT INTO results (compound, result) VALUES
  ('Cc1cccc(/N=c2\snc3sc(C4COc5ccccc5O4)nn23)c1 (stereo not drawn) [Compound 19]', '186 to 187 °C');

Now look at this one.
Task item: Can you look up the measured melting point of Oc1cc(O)c(/N=c2\snc3sc(C4COc5ccccc5O4)nn23)c(O)c1 (stereo not drawn) [Compound 8] for me?
Reply: 214 to 215 °C

* * *

Value Kind: melting point

Worked set:
INSERT INTO results (molecule, result) VALUES
  ('Fc1cccc(/N=c2\snc3sc(C4COc5ccccc5O4)nn23)c1 (stereo not shown)', '194 to 195 °C'),
  ('Clc1cccc(/N=c2\snc3sc(C4COc5ccccc5O4)nn23)c1 (stereo not shown)', '203 to 204 °C'),
  ('COC(=O)c1ccc(/N=c2\snc3sc(C4COc5ccccc5O4)nn23)cc1 (stereo not shown)', '216 to 217 °C'),
  ('Fc1ccccc1/N=c1\snc2sc(C3COc4ccccc4O3)nn12 (stereo not shown)', '193 to 194 °C'),
  ('O=[N+]([O-])c1ccccc1/N=c1\snc2sc(C3COc4ccccc4O3)nn12 (stereo not shown)', '209 to 210 °C'),
  ('Cc1ccc(/N=c2\snc3sc(C4COc5ccccc5O4)nn23)cc1 (stereo not shown)', '187 to 188 °C');

Task item: Can you look up the measured melting point of Oc1ccc(O)c(/N=c2\snc3sc(C4COc5ccccc5O4)nn23)c1 (stereo not shown) for me?
Reply: 199 to 200 °C
